Target: cardiac troponin T (recombinant human) (human)
Test: SPR, 37C
pKd: −log10 of the molar value.
observable: pKd

binder | observable | assay-result
Fab combination 4 (antibody, V domains shown) VH: EVQLQQSGPELVKPGASVKMSCKASGYTFTDYFMKWVKQSHGKSLEWIGDINPNNGETWYNQKFKDKATLTVDKSSSTAYMQLNSLTSEDSAVYYCATRVFDFWGQGTTLTVSS VL: DIVLTQSPASLAVSLGQRATISCKASQSVDYDGTSYMNWFQQKAGQPPKRLIYAASNLESGIPARFSGRGSGTDFALNIHPVEEEDAATYYCQQSNEDPYTFGGGTKLEIKR | pKd | 11.57

Source of measurements: patent US12275778
